Cited source for all entries: ChEMBL document CHEMBL1143352

- measurement.target: Estrogen receptor beta (Homo sapiens, UniProt Q92731)
- Sequence (Q92731 whole entry): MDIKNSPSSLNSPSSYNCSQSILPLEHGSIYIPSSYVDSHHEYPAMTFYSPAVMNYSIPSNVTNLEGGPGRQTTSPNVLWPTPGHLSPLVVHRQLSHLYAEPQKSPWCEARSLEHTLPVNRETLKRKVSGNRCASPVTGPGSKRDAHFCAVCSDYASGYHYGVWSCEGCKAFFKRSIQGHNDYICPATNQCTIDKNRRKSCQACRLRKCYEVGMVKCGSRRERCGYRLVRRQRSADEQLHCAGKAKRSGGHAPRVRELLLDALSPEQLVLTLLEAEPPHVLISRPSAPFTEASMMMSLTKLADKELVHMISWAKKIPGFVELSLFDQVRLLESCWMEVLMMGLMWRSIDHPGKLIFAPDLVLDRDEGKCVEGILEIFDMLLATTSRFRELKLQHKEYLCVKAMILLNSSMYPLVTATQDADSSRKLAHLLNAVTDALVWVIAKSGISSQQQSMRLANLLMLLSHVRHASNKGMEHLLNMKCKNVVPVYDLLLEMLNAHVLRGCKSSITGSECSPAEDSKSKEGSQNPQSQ
- experiment.summary: Displacement of [3H]estradiol from full-length human estrogen receptor beta by radiometric assay relative to estradiol
observable: Activity (%)
A number alone suffices; assume %.

Request: Item COc1ccc(-c2ccc(/C=N/O)c(O)c2Cl)cc1F : provide Activity
Result: 0.011

Request: Item O/N=C/c1cc(-c2ccc(O)c(F)c2)ccc1O : provide Activity
Result: 0.97

Request: Item O/N=C/c1ccc(-c2ccc(O)cc2)cc1O : provide Activity
Result: 0.553

Request: Item COc1ccc(-c2ccc(O)c(/C=N/O)c2)cc1F : provide Activity
Result: 0.013

Request: Item COc1ccc(-c2ccc(/C(C)=N/O)c(O)c2Cl)cc1F : provide Activity
Result: 0.002

Request: Item COc1ccc(-c2ccc(/C(C)=N/O)c(O)c2Cl)cc1 : provide Activity
Result: 0.002

Request: Item COc1ccc(-c2ccc(O)c(/C=N/O)c2)cc1 : provide Activity
Result: 0.011

Request: Item C/C(=N\O)c1ccc(-c2ccc(O)c(F)c2)c(Cl)c1O : provide Activity
Result: 0.077

Request: Item O/N=C/c1ccc(-c2ccc(O)c(F)c2)c(Cl)c1O : provide Activity
Result: 7.01

Request: Item C/C(=N\O)c1ccc(-c2ccc(O)cc2)c(Cl)c1O : provide Activity
Result: 0.123

Request: Item O/N=C/c1cc(-c2ccc(O)cc2)ccc1O : provide Activity
Result: 2.64

---

- Organism: Homo sapiens
- experiment.summary: Ratio of relative binding affinity for full-length human estrogen receptor beta to ratio of relative binding affinity for full length human estrogen receptor alpha
Ratio less than 10 is criterion met; Ratio greater than or equal to 10 is criterion not met.

Request: Strictly below 10: is that where Ratio of C/C(=N\O)c1ccc(-c2ccc(O)c(F)c2)c(Cl)c1O sits?
Result: criterion not met

Request: Strictly below 10: is that where Ratio of O/N=C/c1ccc(-c2ccc(O)cc2)cc1O sits?
Result: criterion not met

Request: Strictly below 10: is that where Ratio of O/N=C/c1cc(-c2ccc(O)c(F)c2)ccc1O sits?
Result: criterion not met

Request: Strictly below 10: is that where Ratio of COc1ccc(-c2ccc(/C=N/O)c(O)c2Cl)cc1F sits?
Result: criterion met

Request: Strictly below 10: is that where Ratio of COc1ccc(-c2ccc(O)c(/C=N/O)c2)cc1 sits?
Result: criterion met

Request: Strictly below 10: is that where Ratio of O/N=C/c1ccc(-c2ccc(O)c(F)c2)c(Cl)c1O sits?
Result: criterion not met

Request: Strictly below 10: is that where Ratio of COc1ccc(-c2ccc(O)c(/C=N/O)c2)cc1F sits?
Result: criterion met

Request: Strictly below 10: is that where Ratio of O/N=C/c1cc(-c2ccc(O)cc2)ccc1O sits?
Result: criterion not met

---

- measurement.target: UniProtKB Q92731
observable: Ki

Request: Item O/N=C/c1ccc(-c2ccc(O)c(F)c2)c(Cl)c1O : provide Ki
Result: 7.1 nM

---

So I've got a bunch of molecules here, and I need their EC50 values.
A number alone suffices; assume nM.

Request: Name the recorded EC50 of O/N=C/c1cc(-c2ccc(O)cc2)ccc1O , assay system Estrogen receptor beta (Homo sapiens, UniProt Q92731).
Result: 10

Request: Name the recorded EC50 of O/N=C/c1ccc(-c2ccc(O)c(F)c2)c(Cl)c1O , assay system Estrogen receptor beta (Homo sapiens, UniProt Q92731).
Result: 4.8
